# TARGET_OF_ASSAY: T1, 4H3782-bN
# T1 chain: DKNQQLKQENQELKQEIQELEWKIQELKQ
# METHOD_DESCRIPTION: two-hybrid library CCNG1;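 also: natural log of median RNA to DNA barcode read ratio; higher means stronger binding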
READOUT: interaction score

BINDER: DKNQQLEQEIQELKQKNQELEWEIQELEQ [4H3185-bN]
VALUE: -0.997
--
BINDER: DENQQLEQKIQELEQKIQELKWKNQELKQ [4H1328-bN]
VALUE: -1.38
--
BINDER: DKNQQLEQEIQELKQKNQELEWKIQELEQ [4H3189-bN]
VALUE: -1.38

1. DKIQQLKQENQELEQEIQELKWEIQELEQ [4H2697-bN]
2. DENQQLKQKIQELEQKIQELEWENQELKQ [4H1828-bN]
3. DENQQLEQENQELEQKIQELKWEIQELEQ [4H1193-bN]
# desc sort on interaction score across 3 binders The reply should contain the labels ordered as requested.
3, 2, 1
